System: Plasmodium berghei
EXPERIMENTAL PROTOCOL: Screen against P. berghei liver stage (PbLuc), transformed with Luciferase, at 10uM
Assay type: functional, HepG2
SETUP CONDITIONS: tested at 10 uM
In all, about 69,000 compounds went through this assay and about 8,600 (12%) showed an effect of 50% or more. What follows is part of a selection rich in strong results, with near analogues and random picks from the rest.
Entries and their measured INHIBITION follow.

Answered examples (3):
CCn1nc(Br)nc1Sc1ccccc1NC(C)=O ... 12.4%
Cn1cc(Cl)cc1C(=O)N1CCCN(Cc2nccn2C)CC1 ... 0.16%
Cn1nc2c(cc1=O)CN(Cc1coc(-c3ccc(F)cc3)n1)CC2 ... -0.113%

The recorded INHIBITION for entry `O=C1C[C@H]2[C@H](CCN2C(=O)c2ccno2)N1CC1CC1` equals 41.4%

Reported INHIBITION ( O=C1CC(c2cccnc2)c2c(c(C(=O)O)cn2-c2cccc(F)c2)N1 (centres undefined) ) = -18.3%

Looking up `O=C(Cc1cccs1)N1CCn2cc(Cn3cccn3)nc2C1` , I found its INHIBITION recorded as -2.72%

INHIBITION for `Cc1ccsc1C(=O)N1CCC2(CC1)C(=O)N(C)CCN2CC1CC1` is 4.08%

Lookup result for `O=C(O)c1ccccc1-n1cnc(CN2CCCc3ccccc32)c1` ; measured INHIBITION: 23%

Consider CC(NC(=O)Nc1ccc(N2CCCC2)nc1)c1nncn1C (centres undefined) . Its measured INHIBITION is 9.54%

The values you see were collected from ChEMBL document CHEMBL4513216.
